Molecular target: T1, recombinant human IL-33 protein (residues 112 to 270) (ILC0701, ATGen Co. Ltd) (human, UniProt O95760 112-270)
T1 construct: bought protein
T1 sequence: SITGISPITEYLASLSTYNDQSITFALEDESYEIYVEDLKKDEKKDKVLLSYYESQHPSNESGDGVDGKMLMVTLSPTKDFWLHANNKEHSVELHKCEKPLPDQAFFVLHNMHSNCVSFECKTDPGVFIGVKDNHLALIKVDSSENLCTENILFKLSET
Test: KinExA in PBS, alkaline-purified IgG
Parameter: Kd (pM)
Answer format: numeric, pM implied, no suffix.

Ask: Bench note: what Kd did A25-2C02 (IgG) (antibody, V domains shown, tested as neutral-purified and as alkaline-purified antibody; also called V15; IGN15) VH: EVQLLESGGGLVQPGGSLRLSCAASGFTFSNYYMHWVRQAPGKGLEWVSSISARSSYIYYADSVKGRFTISRDNSKNTLYLQMNSLRAEDTAVYYCARLATRNNAFDIWGQGTLVTVSS VL: QSVLTQPPSASGTPGQRVTISCSGSSSNIGRNAVNWYQQLPGTAPKLLIYASNMRVSGVPDRFSGSKSGTSASLAISGLRSEDEADYYCWAWDDSQKVGVFGGGTKLTVL show?
Reply: 0.7
